System: rodent lifetime carcinogenesis bioassay, tumor incidence TD50
Assay: carcinogenic potency in animals, long-term in vivo studies, CPDB compilation (AID 1745844)
Details: rat; strain Fischer 344; females; in drinking water; site: Zymbal's gland; lesion: adenoma + adenoma, bilateral + carcinoma + carcinoma, bilateral; dosed 60 weeks; study length 60 weeks
measuredProperty: TD50

State the recorded TD50 for this entry: Cc1cc(-c2ccc(N)c(C)c2)ccc1N 1.27 mg/kg/day

----------
Tested on: rodent lifetime carcinogenesis bioassay, tumor incidence TD50
Assay: carcinogenic potency in animals, long-term in vivo studies, CPDB compilation (AID 1745844)
Details: mouse; strain Charles River CD1; males; inhaled; site: liver; lesion: hemangiosarcoma; dosed 63 weeks; study length 78 weeks
measuredProperty: TD50

State the recorded TD50 for this entry: C=CF 19.4 mg/kg/day
